Measured values drawn from patent EP4692090A1 for this set.

Test system: LoVo cells
METHOD_NOTES: LoVo cell proliferation assay (CellTiter-Glo)
Assay type: cell-based
CONDITION_NOTES: Homo sapiens, LoVo, 120 h, LoVo cells, 2,000 cells per well, 5 days incubation, CellTiter-Glo; maximum concentration 10 µM, 9 concentrations; read-out: LoVo IC50
READOUT_KIND: IC50

// lookup IC50 for CC(C)C1c2cc(N3CCOC[C@H]3C)nc3c2c(nn3-c2cc[nH]n2)CCN1C (single isomer, unassigned) [Compound 141A]
< 100 nM

Now the compound C[C@@H]1COCCN1c1cc2c3c(nn(-c4cc[nH]n4)c3n1)CCN(S(C)(=O)=O)C2C1CC1 (single isomer, unassigned) [Compound 138A]
100 to 1000 nM

Same lookup for C[C@@H]1COCCN1c1cc2c3c(n1)c(-c1cc[nH]n1)nn3CCC(=O)N2C1CC1 , please.
< 100 nM

Can you handle C[C@@H]1COCCN1c1cc2c3c(n1)c(-c1cc[nH]n1)nn3CCC(=O)N2C1CCOC1 (stereo partly shown) next?
100 to 1000 nM

Also need C[C@@H]1COCCN1c1cc2c3c(n1)c(-c1cc[nH]n1)nn3CCC2(C)O (stereo partly shown) , thanks.
100 to 1000 nM

Entry to check: CCS(=O)(=O)N1CCc2nn(-c3cc[nH]n3)c3nc(N4CCOC[C@H]4C)cc(c23)C1C (single isomer, unassigned) [Compound 48A]
100 to 1000 nM

Then C[C@@H]1COCCN1c1cc2c3c(nn(-c4cc[nH]n4)c3n1)CCN(C)C2C1CC1 (single isomer, unassigned) [Compound 142A] ?
< 100 nM
